biological target: DLG1_1, Q12959; experiment: holdup assay; set-up: key: below the threshold = too weak to quantify, mostly under pKd 3.1 to 4; conditions: plain residues with an end cap or a label only (N-terminal biotin on a linker: ado-ado)
Measurement type: pKd

# example entries with known answers
RGKNRRQSIF [CDK18, Q07002]    below the threshold
QLKSGRDSTV [TMEM178A, Q8NBL3]    4.11
GSQSQVETEA [FKBP4, Q02790]    below the threshold
VKQYADVEGF [HNRNPK, P61978;P61978-2]    below the threshold
PGKKPEDSRV [SLCO2B1, O94956]    3.62

The recorded pKd for FVFESRKEIL [TBPL1, P62380] is below the threshold

The recorded pKd for ELKAEDEVQI [DCHS2, Q6V1P9] is below the threshold

The recorded pKd for EAVTVESTSL [SLC22A11, Q9NSA0] is below the threshold

Data credit: paper PMC9482650
